# Study target: T1, apical domain of human CD71 (human, UniProt P02786 189-383, limits assumed)
# T1 construct: domain: apical domain; Screen 4 panned on human apical domains, the ELISA text says only 'apical domain'
# T1 sequence (P02786 189-383 limits assumed): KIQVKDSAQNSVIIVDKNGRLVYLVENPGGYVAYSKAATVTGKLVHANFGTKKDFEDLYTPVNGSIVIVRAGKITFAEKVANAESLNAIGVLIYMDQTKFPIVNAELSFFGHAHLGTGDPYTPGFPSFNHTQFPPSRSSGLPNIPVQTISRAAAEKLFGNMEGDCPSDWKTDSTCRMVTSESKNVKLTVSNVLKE
# Assay comment: primary ELISA, RLU over HSA
Test readout: Apical domain:HSA
The reply should be a number, written without any unit.

{"Binder": "CD71-binding FN3 domain of SEQ ID NO: 511 (designed binder) MLPAPKNLVVSRVTEDSARLSWTAPDAAFDSFFIGYLEPQPPGEAIDLFVPGSERSYDLTGLKPGTEYNVTIQGVKGGFPSLPLVASFTT", "Assay value": 53}
{"Binder": "CD71-binding FN3 domain of SEQ ID NO: 534 (designed binder) MLPAPKNLVVSRVTEDSARLSWTAPDAAFDSFFIGYLEPQPPGEAIHLLVPGSERSYDLTGLKPGTEYNVTIQGVKGGFPSGPLQASFTT", "Assay value": 207}
{"Binder": "CD71-binding FN3 domain of SEQ ID NO: 542 (designed binder) MLPAPKNLVVSRVTEDSARLSWTAPDAAFDSFFIGYLEPQPPGEAIELFVPGSERSYDLTGLKPGTEYNVTIQGVKGGFPSMPLSAIFTT", "Assay value": 237}
{"Binder": "CD71-binding FN3 domain of SEQ ID NO: 517 (designed binder) MLPAPKNLVVSRVTEDSARLSWTAPDAAFDSFFIGYLEPQPPGEAIALVVPGSERSYDLTGLKPGTEYNVTIQGVKGGFPSMPLFAYFTT", "Assay value": 166}
{"Binder": "CD71-binding FN3 domain of SEQ ID NO: 446 (designed binder) MLPAPKNLVVSRVTEDSARLSWTAPDAAFDSFFIGYLEPQPPGEAIQLFVPGSERSYDLTGLKPGTEYNVTIQGVKGGFPSLPLIAYFTT", "Assay value": 42}

Please find the next binder below.
Query :: Using the record for CD71-binding FN3 domain of SEQ ID NO: 515 (designed binder) MLPAPKNLVVSRVTEDSARLSWTAPDAAFDSFFIGYLEPQPPGEAIALWVPGSERSYDLTGLKPGTEYNVTIQGVKGGFPSTPLIAQFTT , state its measured Apical domain:HSA.
Result :: 88
